Test: Volume of distribution in monkey at 2.5 mg/kg
Assay type: ADME, organism-based, Macaca mulatta
Parameters: dose 2.5 mg/kg
Details: rhesus monkey, in vivo, read-out: Vdss
Measured Vd by item
Could you give me the number in L/kg? Just the number is fine.

Query string: Look up Vd: N[C@H](COc1cncc(/C=C/c2ccncc2)c1)Cc1c[nH]c2ccccc12
Result string: 9.1

Next:
Query string: # lookup: Vd of N[C@H](COc1cnc(Cl)c(/C=C/c2ccncc2)c1)Cc1c[nH]c2ccccc12
Result string: 4.2

----------
compounds and their reported bioavailability
Assay: Oral bioavailability in dog at 2.5 mg/kg
Type: ADME, organism-based, Canis lupus familiaris
Details: in vivo
// units = %; emit number, no label

Query string: Which value of bioavailability has been reported for N[C@H](COc1cnc(Cl)c(/C=C/c2ccncc2)c1)Cc1c[nH]c2ccccc12 in the records?
Result string: 45

Now look at this one.
Query string: Entry under review: N[C@H](COc1cncc(/C=C/c2ccncc2)c1)Cc1c[nH]c2ccccc12 . Reported bioavailability?
Result string: 52

----------
Each record here notes measured Vd.
Assay: Volume of distribution in mouse at 30 mg/kg
Assay type: ADME, organism-based
Set-up: dose 30 mg/kg
Settings: in vivo, read-out: Vdss
# output: bare number, implied unit L/kg

Query string: I am curious: what Vd value has been reported for N[C@H](COc1cnc(Cl)c(/C=C/c2ccncc2)c1)Cc1c[nH]c2ccccc12 ?
Result string: 4.8

Proceed to the following item.
Query string: Which value of Vd has been reported for N[C@H](COc1cncc(/C=C/c2ccncc2)c1)Cc1c[nH]c2ccccc12 in the records?
Result string: 6.5

----------
// Vd lookup, one value per entry
Assay: Volume of distribution in rat at 5 mg/kg
Format: ADME, organism-based
Set-up: dose 5 mg/kg
Details: in vivo, read-out: Vdss
Give your result in L/kg as a bare value.

Solved entries (count: 2):
Query string: Entry N[C@H](COc1cncc(/C=C/c2ccncc2)c1)Cc1c[nH]c2ccccc12 : reported Vd = ?
Result string: 5.2

Query string: Same again, this time with N[C@H](COc1cnc(Cl)c(/C=C/c2ccncc2)c1)Cc1c[nH]c2ccccc12
Result string: 9.9

Please examine the following record next.
Query string: // Vd lookup, key: N[C@H](COc1cncc(/C=C/c2ccncc2)c1)Cc1csc2ccccc12
Result string: 3.6

----------
Experiment: Plasma clearance in mouse at 30 mg/kg
Assay type: ADME, organism-based
Parameters: dose 30 mg/kg
Some compounds, each annotated with its measured clearance.
Could you give me the number in mL/min/kg? Just the number is fine.

Query string: I'd like to know its clearance. The compound in question is N[C@H](COc1cncc(/C=C/c2ccncc2)c1)Cc1c[nH]c2ccccc12
Result string: 95

--- query ---
Query string: // query clearance value for entry N[C@H](COc1cnc(Cl)c(/C=C/c2ccncc2)c1)Cc1c[nH]c2ccccc12
Result string: 68.3

----------
Test: Plasma clearance in monkey at 2.5 mg/kg
Assay type: ADME, organism-based, Macaca mulatta
Set-up: dose 2.5 mg/kg
Details: rhesus monkey
Entries and their measured clearance follow.
Give just the numeric value; mL/min/kg need not be written.

Query string: Requested field: clearance. Item: N[C@H](COc1cncc(/C=C/c2ccncc2)c1)Cc1c[nH]c2ccccc12
Result string: 26.7

More entries:
Query string: So what does the record say about clearance for N[C@H](COc1cnc(Cl)c(/C=C/c2ccncc2)c1)Cc1c[nH]c2ccccc12 ?
Result string: 16.2

----------
Experiment: Half life in mouse at 30 mg/kg
Format: ADME, organism-based
Parameters: dose 30 mg/kg
Conditions: in vivo
endpoint: half-life (min)
The reply should be a number in min, with the unit left off.

Query string: Entry under review: N[C@H](COc1cncc(/C=C/c2ccncc2)c1)Cc1c[nH]c2ccccc12 . Reported half-life?
Result string: 48

More entries:
Query string: If you can, please state the reported half-life value of N[C@H](COc1cnc(Cl)c(/C=C/c2ccncc2)c1)Cc1c[nH]c2ccccc12 .
Result string: 48

----------
Recorded clearance for the following compounds
Assay: Plasma clearance in rat at 5 mg/kg
Format: ADME, organism-based
Set-up: dose 5 mg/kg
Phrase the answer as number then unit, nothing more needed.

Example cases with answers are listed next.
Query string: Given N[C@H](COc1cncc(/C=C/c2ccncc2)c1)Cc1c[nH]c2ccccc12 , state its recorded clearance.
Result string: 20 mL/min/kg

Query string: Another compound: N[C@H](COc1cncc(/C=C/c2ccncc2)c1)Cc1csc2ccccc12
Result string: 16.7 mL/min/kg

Further cases:
Query string: GET /values?readout=clearance&item= N[C@H](COc1cnc(Cl)c(/C=C/c2ccncc2)c1)Cc1c[nH]c2ccccc12
Result string: 36.7 mL/min/kg

----------
Molecular target: RAC-alpha serine/threonine-protein kinase (Homo sapiens, UniProt P31749)
Sequence (P31749 whole entry): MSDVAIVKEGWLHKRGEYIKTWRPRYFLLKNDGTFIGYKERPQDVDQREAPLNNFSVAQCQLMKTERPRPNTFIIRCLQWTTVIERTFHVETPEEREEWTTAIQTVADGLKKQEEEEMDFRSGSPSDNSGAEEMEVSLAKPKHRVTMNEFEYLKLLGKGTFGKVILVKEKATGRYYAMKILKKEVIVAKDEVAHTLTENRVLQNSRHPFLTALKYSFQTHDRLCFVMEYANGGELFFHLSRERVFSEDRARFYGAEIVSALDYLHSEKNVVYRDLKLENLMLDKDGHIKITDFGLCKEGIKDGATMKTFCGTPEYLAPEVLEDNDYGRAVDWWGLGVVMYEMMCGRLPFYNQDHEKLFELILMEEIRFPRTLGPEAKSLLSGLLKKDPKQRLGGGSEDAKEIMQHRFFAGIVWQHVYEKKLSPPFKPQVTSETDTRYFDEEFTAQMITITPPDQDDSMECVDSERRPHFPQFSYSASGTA
pIC50: −log10 of the molar value.
endpoint: pIC50

Query string: Find the recorded pIC50 belonging to C(=C\c1cncc(OCCCc2c[nH]c3ccccc23)c1)/c1ccncc1 and report it.
Result string: < 4.30

----------
Reported inhibition values follow for various molecules
Molecular target: RAC-alpha serine/threonine-protein kinase (Homo sapiens)
Test: Inhibition of Akt1 at 5.33 uM
Answer with the figure and its unit, nothing else.

Past entries and their recorded results:
Query string: Observed inhibition on RAC-alpha serine/threonine-protein kinase (Homo sapiens) for N[C@H](COc1cncc(/C=C/c2ccccc2)c1)Cc1c[nH]c2ccccc12 , please.
Result string: 17%

Query string: Try N[C@H](COc1cncc(/C=C/c2ccncc2)c1)C(=O)O next.
Result string: 11%

Query string: Try this molecule next: N[C@H](COc1cncc(/C=C/c2ccncc2)c1)C(=O)Nc1ccc2ccccc2c1
Result string: 4%

Query string: Next record, please: N[C@H](COc1cc(/C=C/c2ccncc2)ccn1)Cc1c[nH]c2ccccc12
Result string: 16%

Now look at this one.
Query string: # value lookup — system RAC-alpha serine/threonine-protein kinase (Homo sapiens), readout inhibition, item N[C@H](COc1cccc(/C=C/c2ccncc2)c1)Cc1c[nH]c2ccccc12
Result string: 35%

----------
# half-life values compiled below
Test: Half life in monkey at 2.5 mg/kg
Format: ADME, organism-based, Macaca mulatta
Set-up: dose 2.5 mg/kg
Conditions: rhesus monkey, in vivo
Field: numeric (h). Do not append units.

Query string: I am curious: what half-life value has been reported for N[C@H](COc1cnc(Cl)c(/C=C/c2ccncc2)c1)Cc1c[nH]c2ccccc12 ?
Result string: 3

---
Query string: Consider the compound N[C@H](COc1cncc(/C=C/c2ccncc2)c1)Cc1c[nH]c2ccccc12 and give its measured half-life.
Result string: 3.7

----------
Assay: Volume of distribution in dog at 2.5 mg/kg
Format: ADME, organism-based, Canis lupus familiaris
Set-up: dose 2.5 mg/kg
Conditions: in vivo, read-out: Vdss
endpoint: Vd (L/kg)
Report the figure in L/kg without appending any unit label.

Query string: I'd like to know its Vd. The compound in question is N[C@H](COc1cnc(Cl)c(/C=C/c2ccncc2)c1)Cc1c[nH]c2ccccc12
Result string: 11.1

Continue with the compound presented below.
Query string: Which value of Vd has been reported for N[C@H](COc1cncc(/C=C/c2ccncc2)c1)Cc1c[nH]c2ccccc12 in the records?
Result string: 12.8
